Source listed as PubChem BioAssay AID1345085.

- System: Tov-21-G
- ASSAY_NAME: Confirmatory qHTS for gynecologic anti-cancer compounds from libraries of approved drugs and bioactive compounds; also: nearly all actives have a fitted effect of over 55% in size
- TEST_PARAMETERS: gynecologic cancer cell panel viability, ATPlite luminescence, 48 h; series mostly up to 57.7 µM
Records with an inconclusive call do not appear. The source made the active and inactive calls. Calls follow the shape of the dose curve; as a rule, active = well fitted cell-killing curve with a large enough effect; inconclusive = small, poorly fitted or top-dose-only effect, or effect the other way; inactive = no such curve, though single readings can be large or run the other way.
Write down the outcome that applies. Available outcomes: yes (1) for active, no (0) for inactive

COMPOUND | ASSAY_TARGET | CAT
COC(C)(C)CCn1nc(Nc2c(C)cccc2C)c2cnc(Nc3ccc(OCCN4CCCC4)c(F)c3)nc21 | Tov-21-G | yes (1)
CCCC(Nc1nc(-c2ccc(NC(=O)NCC)c(OC)c2)ncc1C)c1cccnc1 (configuration not stated) | Tov-21-G | yes (1)
Cc1ccc(-n2[nH]c(C)c(N=Nc3cccc(-c4cccc(C(=O)O)c4)c3O)c2=O)cc1C | Tov-21-G | no (0)

Could you please tell me the result logged for Nc1nc(=S)c2[nH]cnc2[nH]1 in this assay?
no (0)

Could you please tell me the result logged for CC(Oc1ccc2[nH]nc(/C=C/c3cnn(CCO)c3)c2c1)c1c(Cl)cncc1Cl (configuration not stated) in this assay?
yes (1)

Could you please tell me the result logged for CN1CCCC(n2nc(Cc3ccc(Cl)cc3)c3ccccc3c2=O)CC1 (configuration not stated) in this assay?
yes (1)

* * *

- Tested on: Tov-21-G
- ASSAY_NAME: Confirmatory qHTS for gynecologic anti-cancer compounds from libraries of approved drugs and bioactive compounds; also: nearly all actives have a fitted effect of over 55% in size; also: potency is read from the fitted curve at half-maximal effect
- TEST_PARAMETERS: gynecologic cancer cell panel viability, ATPlite luminescence, 48 h; series mostly up to 57.7 µM
Records with an inconclusive call do not appear. Calls of active or inactive are those of the source. Calls follow the shape of the dose curve; as a rule, active = well fitted cell-killing curve with a large enough effect; inconclusive = small, poorly fitted or top-dose-only effect, or effect the other way; inactive = no such curve, though single readings can be large or run the other way.
Quick reference: Potency of the listed items.

MOLECULE | REPORTED_ENDPOINT | OBSERVED_MEASUREMENT
COc1cc(N2CCC(N3CCN(C)CC3)CC2)ccc1Nc1ncc(Cl)c(Nc2ccccc2S(=O)(=O)C(C)C)n1 | Potency | 6.11 µM (active)
NCCOc1cc(C(=O)Nc2cc(OCCN)c3ccccc3n2)nc(C(=O)Nc2cc(OCCN)c3ccccc3n2)c1 | Potency | 24.3 µM (active)
CN(C)C/C=C/C(=O)Nc1cc2c(Nc3ccc(F)c(Cl)c3)ncnc2cc1OC1CCOC1 (stereo unspecified) | Potency | 3.43 µM (active)
Cc1cnc(Nc2ccc(CN3CCOCC3)cc2)nc1Nc1cccc(S(=O)(=O)NC(C)(C)C)c1 | Potency | 0.243 µM (active)

Potency recorded for this molecule, Cc1cnc(Nc2ccc(OCCN3CCCC3)cc2)nc1Nc1cccc(S(=O)(=O)NC(C)(C)C)c1 , is 1.72 µM (active)

* * *

- Test system: Tov-21-G
- ASSAY_NAME: Confirmatory qHTS for gynecologic anti-cancer compounds from libraries of approved drugs and bioactive compounds; also: nearly all actives have a fitted effect of over 55% in size
- TEST_PARAMETERS: gynecologic cancer cell panel viability, ATPlite luminescence, 48 h; series mostly up to 57.7 µM
Inconclusive results are not listed. Activity calls are given as the source filed them. The call rests on the fitted dose curve; in most records, active means well fitted cell-killing curve with a large enough effect; inconclusive means small, poorly fitted or top-dose-only effect, or effect the other way; inactive means no such curve, though single readings can be large or run the other way.
Write down the outcome that applies. Available outcomes: True (active), False (inactive)

Before answering, review these 3 worked examples.
COMPOUND | ASSAY_TARGET | CAT
COc1cc2c(NC3CCN(C(C)C)CC3)nc(C3CCCCC3)nc2cc1OCCCN1CCCC1 | Tov-21-G | True
Nc1nc(Cl)nc2c1ncn2C1OC(CO)C(O)C1F (stereo unspecified) | Tov-21-G | True
CN(C)C1CCN(C(=O)c2ccc(NC(=O)Nc3nc(N4CCOCC4)nc(N4CCOCC4)n3)cc2)CC1 | Tov-21-G | True

Could you please tell me the result logged for COCCOc1nc(-c2ccc(Cl)c(Cl)c2)n(-c2ccc(NC(=O)CCl)cc2)n1 in this assay?
True

Could you please tell me the result logged for CC(=O)NCC(=O)N1C2CCC1c1cc(Nc3ncc(C(F)(F)F)c(NC4CCC4)n3)ccc12 (stereo unspecified) in this assay?
True

Could you please tell me the result logged for CC(=O)OC12COC1CC(O)C1(C)C(=O)C(O)C3=C(C)C(OC(=O)C(O)C(NC(=O)OC(C)(C)C)c4ccccc4)CC(O)(C(OC(=O)c4ccccc4)C21)C3(C)C (stereo unspecified) in this assay?
False
